# experimental.details: Tmax in 5XFAD transgenic B6SJLF1/J mouse plasma at 10 mg/kg, ip by LC-MS/MS analysis
# Format: ADME, organism-based

>  <test.smiles>
COc1ccc(-c2c(C)nc3c(N4CC[C@@H](NC(=O)Oc5ccccc5)C4)cc(C)nn23)cc1OC

>  <Tmax>
15 min

$$$$

====

# Tested on: Cytochrome P450
# experimental.details: Stability in human liver microsomes assessed as CYP450-mediated metabolism by measuring parent compound remaining at 1 uM measured after 60 mins in presence of NADPH generating system by LC-MS/MS analysis
# Type: ADME
# conditions: 1 h
Threshold check on Stability: strictly below 30% is fulfilled; on or above 30% is not fulfilled.

>  <test.smiles>
COc1ccc(-c2c(C)nc3c(N4CC[C@@H](NS(=O)(=O)c5ccc(C)cc5)C4)cc(C)nn23)cc1OC

>  <label.value>
fulfilled

$$$$
>  <test.smiles>
COc1ccc(-c2c(C)nc3c(N4CC[C@@H](NS(=O)(=O)c5ccccc5)C4)cc(C)nn23)cc1OC

>  <label.value>
not fulfilled

$$$$
>  <test.smiles>
COc1ccc(-c2cnc3c(N4CC[C@@H](NC(C)=O)C4)cc(C)nn23)cc1OC

>  <label.value>
fulfilled

$$$$
>  <test.smiles>
COc1ccc(-c2c(C)nc3c(N4CC[C@@H](NS(=O)(=O)c5ccc(Cl)cc5)C4)cc(C)nn23)cc1OC

>  <label.value>
not fulfilled

$$$$
>  <test.smiles>
COc1ccc(-c2c(C)nc3c(N4CC[C@@H](NC(=O)Nc5ccccc5)C4)cc(C)nn23)cc1OC

>  <label.value>
not fulfilled

$$$$
>  <test.smiles>
COc1ccc(-c2c(C)nc3c(N4CC[C@@H](NS(=O)(=O)c5cccs5)C4)cc(C)nn23)cc1OC

>  <label.value>
not fulfilled

$$$$
>  <test.smiles>
CC(=O)N[C@@H]1CCN(c2cc(C)nn3c(-c4cccs4)c(C)nc23)C1

>  <label.value>
not fulfilled

$$$$
>  <test.smiles>
COc1ccc(-c2c(C)nc3c(N4CC[C@@H](NC(=O)C(F)(F)F)C4)cc(C)nn23)cc1OC

>  <label.value>
not fulfilled

$$$$

====

# experimental.details: Stability in human liver microsomes assessed as parent compound remaining at 1 uM measured after 60 mins in absence of NADPH by LC-MS/MS analysis
# Assay type: ADME, Microsome
# conditions: liver microsomes, read-out: Stability
Let's look at some compounds and their measured remaining at 1 h, 1 µM.
readout.label: remaining at 1 h, 1 µM

>  <test.smiles>
COc1ccc(-c2c(C)nc3c(N4CC[C@@H](NC(=O)Oc5cccc(C)c5)C4)cc(C)nn23)cc1OC

>  <readout.label>
remaining at 1 h, 1 µM

>  <observed.result>
> 95%

$$$$
>  <test.smiles>
COc1ccc(-c2c(C)nc3c(N4CCOCC4)cc(C)nn23)cc1OC

>  <readout.label>
remaining at 1 h, 1 µM

>  <observed.result>
> 95%

$$$$
>  <test.smiles>
COc1ccc(-c2c(C)nc3c(N4CC[C@@H](F)C4)cc(C)nn23)cc1OC

>  <readout.label>
remaining at 1 h, 1 µM

>  <observed.result>
> 95%

$$$$
>  <test.smiles>
COc1ccc(-c2c(C)nc3c(N4CC[C@@H](NS(=O)(=O)c5ccc(C)cc5)C4)cc(C)nn23)cc1OC

>  <readout.label>
remaining at 1 h, 1 µM

>  <observed.result>
> 95%

$$$$
>  <test.smiles>
COc1ccc(-n2c(C)nc3c(N4CC[C@@H](NC(C)=O)C4)nc(C)nc32)cc1OC

>  <readout.label>
remaining at 1 h, 1 µM

>  <observed.result>
> 95%

$$$$
